Consider the following compounds; for each one, report its TGI.
# System: TK-10 renal
# TEST: NCI tumour cell line growth inhibition, 48 h

Prompt line: Look up TGI for this compound: CC1=NC(=Cc2ccc(O)cc2)C(=O)N1n1c(-c2ccccc2)nc2ccccc2c1=O
Response line: > 100 µM

Prompt line: Look up TGI for this compound: C/C(=C1/CCCC2(N=NCC2c2ccccc2)C1=O)c1ccccc1 (stereo unspecified)
Response line: > 100 µM

Prompt line: Look up TGI for this compound: COC(=O)c1ccc(/C=C2\N=C(C)OC2=O)cc1
Response line: > 100 µM

Prompt line: Look up TGI for this compound: O=C1c2cc3c(cc2CC12Cc1cc4c(cc1C2=O)CCC4)CCCC3 (stereo unspecified)
Response line: > 100 µM

Prompt line: Look up TGI for this compound: Cc1cccc(/C=N/NC(=S)NCCc2ccccn2)n1
Response line: > 100 µM

Prompt line: Look up TGI for this compound: O=C(C(=O)N1CCc2ccccc21)c1c[nH]c2ccccc12
Response line: > 10 µM
